Cited source: the supplement of paper PMC9694430

Provide the recorded thermal shift delta Tm for the entries that follow.
# Tested on: LOC_OS01G51400-cb002;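 note: purified Escherichia coli-expressed rice kinase domain construct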
# assay_method_text: thermal shift delta Tm vs DMSO control; higher = stronger stabilization (binding)
# details: 12.5 µM; protein concentration 2 µM
Counter-ions that a name gives are not always drawn.

Provide one value: measured thermal shift delta Tm of CCN(CC)CCCCNc1ncc2cc(-c3cc(OC)cc(OC)c3)c(NC(=O)NC(C)(C)C)nc2n1
0.23 °C

Provide one value: measured thermal shift delta Tm of O=C(O[C@@H]1Cc2c(O)cc(O)cc2O[C@@H]1c1cc(O)c(O)c(O)c1)c1cc(O)c(O)c(O)c1 [(-)-Epigallocatechin Gallate]
0.81 °C

Provide one value: measured thermal shift delta Tm of Cc1cc(Nc2cc(Cl)nc(Oc3ccc([N+](=O)[O-])cc3)n2)n[nH]1
0.51 °C

Provide one value: measured thermal shift delta Tm of C[C@H]1CNCCCN1S(=O)(=O)c1cccc2cncc(F)c12 [Ripasudil (K-115) hydrochloride dihydrate]
0.21 °C

Provide one value: measured thermal shift delta Tm of C#Cc1cccc(Nc2ncnc3cc(OCCOC)c(OCCOC)cc23)c1
-0.14 °C

Provide one value: measured thermal shift delta Tm of Fc1ccc2[nH]ccc2c1-c1nc(N2CCOCC2)c2sc(CN3CCN(CC4CC4)CC3)cc2n1
-0.02 °C

Provide one value: measured thermal shift delta Tm of O=c1nc(N2CCOCC2)oc2c(-c3cccc4c3sc3ccccc34)cccc12
-0.4 °C

Provide one value: measured thermal shift delta Tm of Nc1nc(N)c(N=O)c(OCC2CCCCC2)n1
0.44 °C
